- Tested on: IKKε-mediated phosphorylation of IRF3
- protocol description: In-situ phosphorylation of IRF3 (pIRF3 Ser396 ELISA) in HEK293T cells cotransfected with IRF3 and IKKε
- Format: cell-based
- reported conditions: Homo sapiens, HEK-293T; HEK293T cells in culture, Table 3; read-out: pIRF3 ELISA IC50
metric: IC50 (nM)
All answers are understood in nM, so give the number only.

What value of IC50 has been reported for the following compound? N#Cc1cc(-c2ccnc(Nc3cccc(NC(=O)N4CCC(O)C4)c3)n2)ccc1OC1CCOCC1 (stereo not shown) [compound 536]
61.9

What value of IC50 has been reported for the following compound? N#Cc1cc(-c2ccnc(Nc3cccc(NCCN4CCOCC4)c3)n2)ccc1OC1CCOCC1 [compound 657]
97.6

====

- tested target: TBK1 (Homo sapiens, UniProt Q9UHD2)
- Construct: His-tag; made in house; host or cells: Sf9 insect cells
- Sequence (Q9UHD2 1-729): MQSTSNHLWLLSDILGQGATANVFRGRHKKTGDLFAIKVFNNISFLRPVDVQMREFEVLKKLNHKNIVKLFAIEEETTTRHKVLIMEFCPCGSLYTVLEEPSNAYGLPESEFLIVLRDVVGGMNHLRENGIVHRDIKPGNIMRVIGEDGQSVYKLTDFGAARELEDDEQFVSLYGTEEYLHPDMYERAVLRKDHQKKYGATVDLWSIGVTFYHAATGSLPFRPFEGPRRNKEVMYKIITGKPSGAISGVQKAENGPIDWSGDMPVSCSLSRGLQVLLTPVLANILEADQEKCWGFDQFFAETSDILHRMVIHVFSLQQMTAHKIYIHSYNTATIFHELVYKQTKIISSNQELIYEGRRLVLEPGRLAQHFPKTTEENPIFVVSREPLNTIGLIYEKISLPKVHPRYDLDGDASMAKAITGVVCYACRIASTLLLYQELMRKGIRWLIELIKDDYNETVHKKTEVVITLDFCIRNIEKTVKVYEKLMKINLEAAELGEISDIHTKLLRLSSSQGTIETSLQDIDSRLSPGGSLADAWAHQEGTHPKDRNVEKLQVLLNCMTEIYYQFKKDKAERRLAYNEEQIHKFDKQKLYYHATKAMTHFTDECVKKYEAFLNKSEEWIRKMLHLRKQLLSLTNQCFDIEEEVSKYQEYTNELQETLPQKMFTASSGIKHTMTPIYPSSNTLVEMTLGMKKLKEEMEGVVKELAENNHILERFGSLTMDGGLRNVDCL
- protocol description: In-vitro TBK1 kinase assay ([γ33]ATP filter-plate)
- Assay type: biochemical
- reported conditions: Table 3; read-out: TBK1 IC50
pIC50 values by entry
Lab note: report pIC50 as minus log10 of the concentration in molar units, number only.

>  <test smiles>
COCCOC1CN(C(=O)c2ccc(Nc3nccc(-c4ccc(OC5CCOCC5)c(C#N)c4)n3)cc2OC)C1

>  <pIC50>
9.40

$$$$
>  <test smiles>
COc1cc(Nc2nccc(-c3ccc(OC4CCOCC4)c(C#N)c3)n2)ccc1C(=O)NC1CCN(C)CC1

>  <pIC50>
9.40

$$$$

Next molecule, pIC50 to be filled in.
What value of pIC50 has been reported for the following molecule? "COc1cc(Nc2nccc(-c3ccc(OC4CCOCC4)c(C#N)c3)n2)ccc1C(=O)N1CCCC1"
9.40

====

pIC50 values by entry
- tested target: TBK1 (Homo sapiens)
- Construct: His-tag; made in house; host or cells: Sf9 insect cells
- Sequence (Q9UHD2 1-729): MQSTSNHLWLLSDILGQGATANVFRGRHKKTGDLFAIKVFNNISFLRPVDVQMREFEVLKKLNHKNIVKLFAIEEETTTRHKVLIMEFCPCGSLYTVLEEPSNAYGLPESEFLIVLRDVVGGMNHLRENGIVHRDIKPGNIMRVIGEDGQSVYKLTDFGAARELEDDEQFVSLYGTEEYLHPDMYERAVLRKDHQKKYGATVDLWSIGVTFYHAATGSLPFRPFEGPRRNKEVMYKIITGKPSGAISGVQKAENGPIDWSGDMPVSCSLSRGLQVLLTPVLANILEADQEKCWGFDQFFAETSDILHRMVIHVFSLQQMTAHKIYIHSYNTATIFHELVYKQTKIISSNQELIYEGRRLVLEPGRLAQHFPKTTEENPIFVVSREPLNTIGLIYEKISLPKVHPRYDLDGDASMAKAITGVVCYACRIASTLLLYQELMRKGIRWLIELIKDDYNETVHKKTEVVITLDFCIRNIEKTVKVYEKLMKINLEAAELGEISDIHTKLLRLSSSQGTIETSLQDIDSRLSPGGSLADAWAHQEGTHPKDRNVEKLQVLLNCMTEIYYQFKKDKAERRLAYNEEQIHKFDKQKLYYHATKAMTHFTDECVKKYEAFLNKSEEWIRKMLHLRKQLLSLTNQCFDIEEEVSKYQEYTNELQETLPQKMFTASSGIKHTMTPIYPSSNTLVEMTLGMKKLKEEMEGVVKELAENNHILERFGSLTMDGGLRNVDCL
- protocol description: In-vitro TBK1 kinase assay ([γ33]ATP filter-plate)
- Format: biochemical
- reported conditions: text bins; read-out: IC50 for inhibition of the kinase activity of TBK1
pIC50: −log10 of the molar value.

What value of pIC50 has been reported for the following compound? N#Cc1cc(-c2ccnc(Nc3ccc(N4CCOCC4)cc3)n2)ccc1OC1CCN(CCO)CC1 [Example 49]
> 8.00

What value of pIC50 has been reported for the following compound? COc1ccc(-c2ccnc(Nc3cc(OC)c(OC)c(OC)c3)n2)cc1C#N [compound 341]
> 8.00

What value of pIC50 has been reported for the following compound? COc1cc(Nc2nccc(-c3ccc(OC4CCOCC4)c(C#N)c3)n2)ccc1C(=O)N1CC(N(C)C)C1 [compound 377]
> 8.00

What value of pIC50 has been reported for the following compound? COc1cc(Nc2nccc(-c3ccc(OC4CCN(C(=O)[C@H](C)O)C4)c(C#N)c3)n2)ccc1N1CCOCC1 (stereo partly shown) [Example 116]
> 8.00

What value of pIC50 has been reported for the following compound? N#Cc1cc(-c2ccnc(Nc3ccc(N4CCOCC4)cc3)n2)ccc1O [Example 130]
> 8.00

What value of pIC50 has been reported for the following compound? CCN1CCN(CCCOc2cc(Nc3nccc(-c4ccc(OC5CCOCC5)c(C#N)c4)n3)ccc2OC)CC1 [compound 525]
> 8.00

What value of pIC50 has been reported for the following compound? N#Cc1cc(-c2nc(Nc3ccc(N4CCOCC4)cc3)nc3[nH]cnc23)ccc1OC1CCOCC1 [compound 553]
7.00 to 8.00

What value of pIC50 has been reported for the following compound? COc1ccc(Nc2nccc(-c3ccc(OC4CCOCC4)c(C#N)c3)n2)cc1OCCCN1CCN(C(C)C)CC1 [compound 523]
> 8.00

What value of pIC50 has been reported for the following compound? CC(=O)NCCCOc1ccc(-c2ccnc(Nc3ccc(N4CCOCC4)cc3)n2)cc1C#N [Example 149]
7.00 to 8.00

What value of pIC50 has been reported for the following compound? COc1cc(NC(=O)NCCCO)cc(Nc2nccc(-c3ccc(OC)c(C#N)c3)n2)c1 [compound 315]
> 8.00

What value of pIC50 has been reported for the following compound? COc1cc(Nc2nccc(-c3ccc(OC4CCOCC4)c(C#N)c3)n2)ccc1C(=O)NCCCN(C)C [Example 103]
> 8.00

What value of pIC50 has been reported for the following compound? N#Cc1cc(-c2ccnc(Nc3ccc(CS(=O)(=O)NCCO)cc3)n2)ccc1OCC1CC1 [compound 637]
> 8.00

What value of pIC50 has been reported for the following compound? CC(C)(O)COc1ccc(-c2ccnc(Nc3ccc(N4CCOCC4)cc3)n2)cc1C#N [Example 231]
7.00 to 8.00

What value of pIC50 has been reported for the following compound? COc1cc(Nc2nccc(-c3ccc(OC4CCN(C(C)=O)CC4)c(C#N)c3)n2)ccc1N1CCNC(=O)C1 [Example 134]
> 8.00

What value of pIC50 has been reported for the following compound? COc1cc(Nc2nccc(-c3ccc(OC4CCOCC4)c(C#N)c3)n2)ccc1CN1C[C@@H](C)O[C@@H](C)C1 [compound 480]
> 8.00

What value of pIC50 has been reported for the following compound? CN1CCN(c2ccc(Nc3nccc(-c4ccc(OC5CCNC5)c(C#N)c4)n3)cc2)CC1 (stereo not shown) [Example 90]
7.00 to 8.00

====

- tested target: IKKε (Homo sapiens, UniProt Q14164)
- Construct: His-tag; made in house; host or cells: Sf9 insect cells
- Sequence (Q14164 whole entry): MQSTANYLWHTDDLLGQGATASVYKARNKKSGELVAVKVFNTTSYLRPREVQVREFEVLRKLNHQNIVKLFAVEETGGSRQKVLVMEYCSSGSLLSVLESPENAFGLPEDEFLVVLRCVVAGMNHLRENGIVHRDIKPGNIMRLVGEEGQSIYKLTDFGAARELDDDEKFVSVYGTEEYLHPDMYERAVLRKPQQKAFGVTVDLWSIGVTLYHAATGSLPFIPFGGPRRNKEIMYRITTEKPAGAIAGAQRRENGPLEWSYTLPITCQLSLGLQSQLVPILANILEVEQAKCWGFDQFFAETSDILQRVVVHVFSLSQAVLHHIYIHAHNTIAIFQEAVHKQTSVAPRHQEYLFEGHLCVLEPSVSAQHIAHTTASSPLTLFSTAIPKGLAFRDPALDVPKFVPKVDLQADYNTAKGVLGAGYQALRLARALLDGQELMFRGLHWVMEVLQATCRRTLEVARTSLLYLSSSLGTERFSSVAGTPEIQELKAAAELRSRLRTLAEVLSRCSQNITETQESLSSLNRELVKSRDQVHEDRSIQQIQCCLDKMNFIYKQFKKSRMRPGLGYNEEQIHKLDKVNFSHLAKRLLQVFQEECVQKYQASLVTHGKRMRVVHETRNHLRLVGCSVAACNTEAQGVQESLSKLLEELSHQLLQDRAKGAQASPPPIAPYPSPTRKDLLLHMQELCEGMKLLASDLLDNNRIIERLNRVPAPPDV
- protocol description: In-vitro IKKε kinase assay ([γ33]ATP filter-plate)
- Type: biochemical
- reported conditions: text bins; read-out: IC50 for inhibition of the kinase activity of IKKε
pIC50: −log10 of the molar value.
pIC50 values by entry

>  <test smiles>
N#Cc1cccc(-c2ccnc(Nc3ccc(N)cc3)n2)c1

>  <tested target>
IKKε (Homo sapiens, UniProt Q14164)

>  <pIC50>
6.30 to 7.30

$$$$
>  <test smiles>
N#Cc1cc(-c2ccnc(Nc3ccc(N4CCOCC4)cc3)n2)ccc1OC1CN(C=O)C1

>  <tested target>
IKKε (Homo sapiens, UniProt Q14164)

>  <pIC50>
6.30 to 7.30

$$$$
>  <test smiles>
N#Cc1cccc(-c2ccnc(Nc3ccc(N4CCOCC4)cc3)n2)c1

>  <tested target>
IKKε (Homo sapiens, UniProt Q14164)

>  <pIC50>
6.30 to 7.30

$$$$
>  <test smiles>
COc1ccc(Nc2nccc(-c3cccc(C#N)c3)n2)cc1F

>  <tested target>
IKKε (Homo sapiens, UniProt Q14164)

>  <pIC50>
6.30 to 7.30

$$$$
>  <test smiles>
COc1cc(NC(=O)NC2CCCC2)cc(Nc2nccc(-c3ccc(OC)c(C#N)c3)n2)c1

>  <tested target>
IKKε (Homo sapiens, UniProt Q14164)

>  <pIC50>
7.30 to 8.30

$$$$

What value of pIC50 has been reported for the following molecule? "COc1cc(NC(=O)NCCCN)cc(Nc2nccc(-c3ccc(OC)c(C#N)c3)n2)c1"
6.30 to 7.30

The reported measurements were obtained from patent US20150352108A1.
